Some molecules, each annotated with its measured relative β-galactosidase activity, inducer Ci.
- Test system: lacZ under control of the tetA promoter (PtetA) in E. coli KM3
- Assay type: cell-based
- MEASUREMENT_PARAMETERS: Table 6, reverse repressor hits; chlorimuron, same plate assay format (20 ppm)
Answer with a number only.

L1-39: library L1 hit with reverse repressor activity (SEQ ID NO: 1206-1213) (protein, rSuR L1-39) MGSRLDKSKVINSALELLNEVGIEGLTTRKLAQKLGVEQPTLYWHVKNKRALLDALAIEMMDRHQTHFCPLEGESWQDFLRNTAKSYRCALLSHRDGAKVILGTRWTEKQYETRENVLAFLCQQGFSLENALYAWAAVGPFTLGCVLRDQERQVAKEERETPTTDSMPPLLRQALELMDHQGAEPAFLFGLELIICGLEKQLKCESGS: 0.49
L1-18: library L1 hit with reverse repressor activity (SEQ ID NO: 1206-1213) (protein, rSuR L1-18) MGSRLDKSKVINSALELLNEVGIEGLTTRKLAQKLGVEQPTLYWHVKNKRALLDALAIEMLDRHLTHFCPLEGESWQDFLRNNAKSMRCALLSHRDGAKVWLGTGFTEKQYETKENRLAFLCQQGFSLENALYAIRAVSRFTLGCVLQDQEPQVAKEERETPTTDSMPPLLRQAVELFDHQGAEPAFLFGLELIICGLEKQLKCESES: 0.36
L1-41: library L1 hit with reverse repressor activity (SEQ ID NO: 1206-1213) (protein, rSuR L1-41) MGSRLDKSKVINSALELLNEVGIEGLTTRKLAQKLGVEQPTLYWHVKNKRALLDALAIEMLDRNQTHFCPLEGESWQDFLRNNAKSWRCALLSHRDGAKVMLGTRNTEKQYETAENGLAFLCQQGFSLENALYACRAVWTFTLGCVLDDQETQVAKEERETPTSDSMPPLLRQAMELKDHQGAEPAFLFGLELIICGLEKQLKCESGS: 0.39

Turning now to a further record.
Prompt: Look up relative β-galactosidase activity, inducer Ci: L1-34: library L1 hit with reverse repressor activity (SEQ ID NO: 1206-1213) (protein, rSuR L1-34) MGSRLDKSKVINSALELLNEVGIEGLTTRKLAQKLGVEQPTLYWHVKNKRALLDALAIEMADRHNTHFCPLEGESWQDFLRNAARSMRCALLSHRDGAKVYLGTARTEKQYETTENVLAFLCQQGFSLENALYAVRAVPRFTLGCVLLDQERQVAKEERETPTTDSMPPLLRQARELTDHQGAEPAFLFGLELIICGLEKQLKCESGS
Response: 0.43
